Tested on: HCT-116
Experiment: NCI tumour cell line growth inhibition, 48 h
Active and inactive are the calls of the source. No stated cut-off is given here; in the data, active = GI50 up to about 1.1 µM and inactive = higher.
property name: GI50

Prompt: Lab note: need GI50 for CCOC(=O)C1=NN(c2ccc([N+](=O)[O-])cc2)[C@@]2(C)C[C@]3(c4ccccc4)N(c4ccc([N+](=O)[O-])cc4)N=C(C(=O)OCC)N3c3ccccc3N12 on HCT-116, anyone have it?
Completion: > 100 µM (inactive)

Prompt: Form field - read-out: GI50; system: HCT-116; submitted item: CN1CCCc2nc3ccccc3n2C1
Completion: > 100 µM (inactive)

Prompt: Given the entry CC(C)Sc1nc(C#N)cc2c1CCCC2 , what GI50 was observed with HCT-116?
Completion: 44.7 µM (inactive)

Prompt: Value wanted: GI50 (HCT-116) of entry Cc1ccnc(NC(NC(=O)c2ccccc2)(C(F)(F)F)C(F)(F)F)c1
Completion: > 100 µM (inactive)

Prompt: Record lookup: for HCT-116, what GI50 belongs to CC1(C#N)CC(C)(C)C(/C=C2/CC(C)(C)C(/C=C3/OC(=N)CC3(C)C)=N2)=N1 (stereo not given) ?
Completion: 28.9 µM (inactive)

###

Test system: SNB-19
Assay: NCI tumour cell line growth inhibition, 48 h
The source made the active and inactive calls. Cut-off read from the data, not from the text of the source: active = GI50 up to about 1.1 µM and inactive = higher.
Select the correct class. Options are 1 (yes) (active), 0 (no) (inactive) and nothing else.

Prompt: Any idea what this test logged for CCCCN1CCC(O)(c2cc(C(=O)O)[nH]c2-c2cc(C)no2)C1=O (stereo not drawn) ?
Completion: 0 (no)

Prompt: Field: outcome | Entry: O=C1CSCC(=O)Nc2ccccc2N1
Completion: 0 (no)

Prompt: Returns: the outcome recorded for Clc1ccc(/C=C/c2nc(Cl)c(-c3ccc(Cl)cc3)c(Cl)n2)cc1 in this assay.
Completion: 0 (no)

Prompt: Query: recorded result category for COC(=O)CCSC(=O)Nc1ccc(/N=N/c2ccccc2)cc1 in this test
Completion: 0 (no)

Prompt: Please indicate how the test categorized CCNC1=C(NC(=O)CC)C(=O)c2ccccc2C1=O .
Completion: 0 (no)

Prompt: Check the results log: what was the call for O=C(c1ccc([N+](=O)[O-])cc1)N1CCCC1 ?
Completion: 0 (no)

Prompt: Answer briefly: the call reported for OC1[C@H](O)CN(OCc2ccccc2)C[C@@H]1O (stereo partly drawn) in this assay.
Completion: 0 (no)

Prompt: What classification did CNC1=C(C)C(=O)C2=C(C1=O)C(COC(N)=O)C1(OC)C3NC3CN21 (stereo not drawn) end up with in this test?
Completion: 1 (yes)

Prompt: GET /call?item= CC1(C#N)CC(C)(C)C(/C=C2/CC(C)(C)C(/C=C3/OC(=N)CC3(C)C)=N2)=N1 (stereo not drawn) returns the recorded outcome of this test.
Completion: 0 (no)

Prompt: Record request — test call for COC(=O)C1=NN2c3ccccc3CN([C@@H](C)c3ccccc3)C(=O)[C@@H]2[C@H]1c1ccccc1
Completion: 0 (no)

Prompt: # lookup: test call for CC(C)(CCCCC(C)(C)NCC1COc2ccccc2O1)NCC1COc2ccccc2O1 (stereo not drawn)
Completion: 0 (no)

Prompt: Given CCOC(=O)C1=NN(c2ccc([N+](=O)[O-])cc2)[C@@]2(C)C[C@]3(c4ccccc4)N(c4ccc([N+](=O)[O-])cc4)N=C(C(=O)OCC)N3c3ccccc3N12 , state the outcome it received in this test.
Completion: 0 (no)

Prompt: Per the assay record, what outcome was assigned to COc1c(Br)cc(/C=C(\C#N)c2cccnc2)cc1Br ?
Completion: 0 (no)

###

Would you kindly list GI50 for each of these compounds?
Tested on: HT-29
Experiment: NCI tumour cell line growth inhibition, 48 h
Activity calls are given as the source filed them. No stated cut-off is given here; in the data, active = GI50 up to about 1.1 µM and inactive = higher.

Prompt: What measured GI50 goes with CC1=CCC(C)=Nc2nc3ccccc3n21 ?
Completion: > 100 µM (inactive)

Prompt: Would you kindly share the measured GI50 for Cn1c2ccccc2c2c3c(c4c5ccccc5n(C)c4c21)C(=O)N(c1ccccc1)C3=O ?
Completion: > 100 µM (inactive)

Prompt: Entry CCN(CC)c1ccc(/N=N/c2ccc(-c3nc4cccn(C)c-4n3)cc2)cc1 : reported GI50 = ?
Completion: 1.98 µM (inactive)

Prompt: // query GI50 value for entry O=[N+]([O-])c1ccc(CSc2nn(Cc3ccc([N+](=O)[O-])cc3)cc3ncnc2-3)cc1
Completion: 29.6 µM (inactive)

###

System: DU-145
Assay: NCI tumour cell line growth inhibition, 48 h
The source made the active and inactive calls. Rule as the data show it: active = GI50 up to about 1.1 µM and inactive = higher.
For each record, write down the corresponding GI50.

Prompt: Given the entry O=CN1CCN(CC(O)CN2CCCCC2)CC1 (stereo unspecified) , what GI50 was observed with DU-145?
Completion: > 100 µM (inactive)

Prompt: # returns recorded GI50 (system: DU-145) for CCC(C(=O)c1cccs1)C(O)(C(F)(F)F)C(F)(F)F (stereo unspecified)
Completion: > 100 µM (inactive)

Prompt: Item: O=c1c2cc(Br)ccc2oc2ccc(Br)cc12 Test system: DU-145 Read-out: GI50 Value: ?
Completion: 84.1 µM (inactive)

Prompt: Requested read-out GI50, target or system DU-145, entry CNc1ccc2c(c1)Cc1ccccc1-2
Completion: 31.9 µM (inactive)

Prompt: Under DU-145: GI50 value of COc1ccc(/C=C(\C(=C/c2ccc(OC)cc2)[N+](=O)[O-])[N+](=O)[O-])cc1 ?
Completion: 12.1 µM (inactive)

Prompt: Request body: readout GI50, system DU-145, query CCOC(=O)/C=C(\C(=O)OCC)n1cc(C)c(=O)n(Cc2cn(CCCCOC(C)=O)nn2)c1=O . Return the value.
Completion: 19.8 µM (inactive)

Prompt: Under DU-145: GI50 value of Cn1c(C(C#N)c2nc(Cl)ncc2Br)nc2ccccc21 (stereo unspecified) ?
Completion: > 100 µM (inactive)

Prompt: Checklist item: GI50 tested on DU-145, entry O=c1ccc(-c2ccc(-n3ccnc3)cc2)nn1CCO , value?
Completion: > 100 µM (inactive)

Prompt: Request: GI50, test system DU-145, entry CCOC(=O)[C@H](C)OC(=O)[C@@](C)(NC(=O)c1ccccc1C(=O)OC)[C@@H]1NC=C(C(=O)OC)CS1
Completion: > 100 µM (inactive)

Prompt: Lab note: need GI50 with DU-145 for entry Cc1ccc(S(=O)(=O)c2ccsc2NC(=O)c2ccccc2)cc1 , please look it up.
Completion: > 100 µM (inactive)

Prompt: Return GI50 measured with DU-145 given this molecule: CCOC(=O)C1=NN(c2ccc([N+](=O)[O-])cc2)[C@@]2(C)C[C@]3(c4ccccc4)N(c4ccc([N+](=O)[O-])cc4)N=C(C(=O)OCC)N3c3ccccc3N12
Completion: > 100 µM (inactive)

Prompt: State its GI50 on DU-145: Oc1ccc2ccccc2c1/N=N/c1cccc2ccccc12
Completion: > 100 µM (inactive)

Prompt: Request body: readout GI50, system DU-145, query O=[N+]([O-])c1cc2oc(COc3ccccc3)nc2cc1Cl . Return the value.
Completion: 32.3 µM (inactive)

Prompt: Param readout= GI50; system= DU-145; entry= COC(CCC[N+](C)(C)C)CC[N+](C)(C)C (stereo unspecified) ; returns value.
Completion: > 100 µM (inactive)

Prompt: Observed GI50 on DU-145 for Clc1ccc(COC(Cn2ccnc2)c2ccc(Cl)cc2Cl)cc1 (stereo unspecified) , please.
Completion: 16.5 µM (inactive)

Prompt: Param readout = GI50; param system = DU-145; param query = CC1OC(n2cnc3c(N)nc(Cl)nc32)C(C)(O)C1O (stereo unspecified) ; response: value
Completion: > 25 µM (inactive)

###

Kindly supply the reported GI50 values for the records listed here.
Test system: RPMI-8226
Assay: NCI tumour cell line growth inhibition, 48 h
The source made the active and inactive calls. Cut-off read from the data, not from the text of the source: active = GI50 up to about 1.1 µM and inactive = higher.

Prompt: Which GI50 value belongs to CN(c1ccc(Cl)cc1)S(=O)(=O)c1ccccc1 ?
Completion: 42.3 µM (inactive)

Prompt: Please report the recorded GI50 for CC[C@@]1(O)C(=O)OCc2c1cc1n(c2=O)Cc2cc3c(NC(=O)CN)cccc3nc2-1 .
Completion: 1.88 µM (inactive)

Prompt: Could you share which GI50 value was measured for CC(C)NC(=O)OCc1c(COC(=O)NC(C)C)c(-c2ccc[n+](COC(=O)C(C)C)c2)n2c1CCC2 ?
Completion: 55.2 µM (inactive)

Prompt: Endpoint output: GI50 of O=[N+]([O-])c1cc(/N=N/c2c(O)ccc3cc(S(=O)(=O)O)ccc23)c(O)c([N+](=O)[O-])c1 . Value?
Completion: > 100 µM (inactive)

Prompt: Given the entry COc1c2occc2cc2ccc(=O)oc12 , report its measured GI50.
Completion: > 100 µM (inactive)

Prompt: Quick one: GI50 of CCOP(=O)(C/C(O)=C1\C(=O)C(CCCNC(=O)OC(C)(C)C)N(Cc2ccc(OC)c(OC)c2)C1=O)OCC (stereo not drawn) ?
Completion: > 100 µM (inactive)

Prompt: Recorded GI50 of CC(=O)Nc1ccc(C(=O)N2N=C(C)/C(=C\c3c(O)ccc4ccccc34)C2=O)cc1 , please.
Completion: 56.8 µM (inactive)

Prompt: Form field: reported GI50 of CC1=C(O)C(=O)C2=C(C1=O)[C@@H]([C@@H](C)C/C=C/C(C)(C)O)CC[C@@H]2C
Completion: 23.5 µM (inactive)

Prompt: So what's the measured GI50 for this one? COC(=O)c1cc(C(=O)OC)c(CC(=O)C(=O)NC2C3CC4CC(C3)CC2C4)nc1CC(=O)C(=O)NC1C2CC3CC(C2)CC1C3 (stereo not drawn)
Completion: > 100 µM (inactive)

Prompt: # get_value(readout='GI50', item= CC1(C#N)CC(C)(C)C(/C=C2/CC(C)(C)C(/C=C3/OC(=N)CC3(C)C)=N2)=N1 (stereo not drawn) )
Completion: 20 µM (inactive)

Prompt: What value of measured GI50 is listed for Nn1c(S)nnc1-c1ccccc1Nc1ccccc1-c1nnc(S)n1N ?
Completion: 41.8 µM (inactive)

Prompt: Sample Clc1ccc(COC(Cn2ccnc2)c2ccc(Cl)cc2Cl)cc1 (stereo not drawn) — what was its GI50?
Completion: 8.26 µM (inactive)

Prompt: Reported GI50, molecule Clc1cccc(C2SCc3nc4ccccc4n32)c1 (stereo not drawn) : ____
Completion: 14.2 µM (inactive)

Prompt: Look up GI50 for this molecule: COC(=O)C1=C(C(=O)OC)C2(C)C=CC1O2 (stereo not drawn)
Completion: 1.91 µM (inactive)

Prompt: Data request, read-out GI50, for Clc1ccc(/C=C/c2nc(Cl)c(-c3ccc(Cl)cc3)c(Cl)n2)cc1
Completion: 23.8 µM (inactive)

Prompt: Which GI50 value is on record for O=C1CNc2cc(N3CCCCC3)ccc2N1 ?
Completion: > 100 µM (inactive)

Prompt: Report GI50 for COC1C(OC(=O)/C=C/C=C/C=C/C=C/C(=O)O)CCC2(CO2)C1C1(C)OC1CC=C(C)C (stereo not drawn) please.
Completion: 20.1 µM (inactive)

Prompt: So what does the record say about GI50 for N#C/C(=C\c1ccccc1Br)C(=O)c1ccccc1 ?
Completion: 9.86 µM (inactive)
